Test system: UACC-62 melanoma
TEST: NCI tumour cell line growth inhibition, 48 h
PARAMETER MEASURED: TGI (µM)
Answer with a number only, understood to be in µM.

Any idea what its TGI is? The molecule is `COc1cc(C(=O)Nc2cc(O)c(CC=C(C)C)c(O)c2)cc2c1O[C@]1(C)CC[C@@H](O)C(C)(C)[C@H]1C2` 1.57

Can you look up the measured TGI of `CCC(=O)Nc1ccc(N2C(=O)/C(=C/c3ccc(OC)cc3)N=C2c2ccccc2)cc1` for me? 17.7

So what does the record say about TGI for CCc1ccc2c(c1)N(CC(C)CN(C)C)c1ccccc1S2 (centres undefined) ? 13.1

Any idea what TGI was measured for `CCOC(=O)/C(I)=C/c1cc(OC)c(OC)c(OC)c1` ? 16.1

For `CN1CCN(CCCCCN=c2cc3c(=O)n(CCCCCN4CCN(C)CC4)c(=O)c4c(NCCCCCN5CCN(C)CC5)cc5c(O)n(CCCCCN6CCN(C)CC6)c(=O)c2c5c4-3)CC1` , what is its reported TGI? 15.7

Consider the molecule C[C@@H]1Cc2cc(O)ccc2[C@H]2CC[C@]3(C)/C(=C/COCCN(C)C)CC[C@H]3[C@H]12 (tested in a mixture with another compound) and give its measured TGI. 0.625

* * *

Give measured TGI for each item. Keep answers brief.
Tested on: KM20L2 colon
TEST: NCI tumour cell line growth inhibition, 48 h

I have this molecule here, `O=NN(CCF)C(=O)NC1CCSCC1` , and I need its recorded TGI. > 100 µM

Would you kindly share the measured TGI for `CC1=NN(c2ccccc2)C(=O)/C1=C\c1ccc([N+](=O)[O-])cc1` ? > 100 µM

Record request: TGI value, item `COc1cc(C2(C)SCCCS2)cc(OC)c1OC` > 100 µM

# get_value(readout='TGI', item= `CCCC(S(=O)(=O)c1ccccc1)S(=O)(=O)c1ccccc1` ) > 100 µM

Which TGI is reported for this molecule? `O=C1CCCC/C1=C\c1ccc(Cl)c(Cl)c1` 40.9 µM

May I ask what TGI has been recorded for Cc1ccc(NC(=O)C(=O)C(C(=O)/C=C/c2ccccc2)C2OC(=O)c3ccccc32)c(C)c1 (stereo unspecified) ? > 100 µM

I'd like to know its TGI. The molecule in question is `c1ccc2c(c1)CCc1c-2n[nH]c1-c1[nH]nc2c1CCc1ccccc1-2` > 100 µM

If you can, please state the reported TGI value of `O=C(/C=C/c1ccc(Cl)c(Cl)c1)c1cccc2ccccc12` . 17.7 µM

Which TGI is reported for this molecule? NC1=NC(=O)C(CC(=O)Nc2ccc(Cl)cc2Cl)S1 (stereo unspecified) > 100 µM

# input molecule: `CC(C)(C)c1cc2nc(c1)C(C(F)(F)F)(C(F)(F)F)OB(Br)OC2(C(F)(F)F)C(F)(F)F` ; wanted: its TGI 1.25 µM

Would you mind telling me what TGI value was observed for `O=C1C=C(O)C(=Cc2c(O)cc(O)cc2O)C(O)=C1` ? > 100 µM

* * *

Tested on: CAKI-1 renal
TEST: NCI tumour cell line growth inhibition, 48 h
PARAMETER MEASURED: TGI

# TGI lookup, item `N#Cc1nc(C#N)n(S(=O)(=O)c2ccccc2)c1NS(=O)(=O)c1ccccc1` > 57.7 µM

Look up TGI for this compound: COc1cccc(C2c3cc4c(cc3OC3COC(=O)C32)OCO4)c1OC (stereo not given) > 100 µM

I would be grateful if you could share the reported TGI for `Nc1ncnc2c1ncn2[C@@H]1O[C@H](COC(c2ccccc2)(c2ccccc2)c2ccccc2)[C@@H](OC(=S)Oc2ccccc2)[C@@H]1F` . 41.6 µM

Item `Fc1ccc(/C=N/n2c(-c3ccc(F)c(Cl)c3)n[nH]c2=S)cc1` has what recorded TGI? > 100 µM

Fill blank: measured TGI of the compound `O=NN(CCF)C(=O)NC1CCSCC1` is ____. > 100 µM

TGI lookup needed for `CCOC(=O)Cn1nnc2ccc(Nc3nc4ccccc4nc3-c3ccccc3)cc21` , thanks. > 100 µM

Tell me the measured TGI of CC(C)(CCC(C)(C)N1OC1c1ccccc1)N1OC1c1ccccc1 (stereo not given) , please. 60.3 µM

Bench note: what TGI did `O=C(O)c1cc(CCc2cc(O)ccc2O)ccc1O` show? > 100 µM

// TGI lookup, key: `C[CH2][Hg][S]c1ccccc1C(=O)O` 1.47 µM

Name the recorded TGI for `O=C(NCCNCCO)c1cccc2ccc(-c3ccccc3)nc12` . 14.1 µM

For the compound shown here, `O=C(O)c1ccccc1N=Nc1c(O)c(S(=O)(=O)O)cc2cc(S(=O)(=O)O)ccc12` , give the reported TGI. > 100 µM

Suppose we examine the compound Cc1cccc(NC(=O)/C(=N\N)C(c2cnc3ccc([N+](=O)[O-])cc3n2)[N+](=O)[O-])c1C (stereo not given) ; what TGI value has been reported? > 100 µM

Given the entry `O=C(Nc1ccccc1OC(=O)c1ccccc1)c1ccccc1` , report its measured TGI. 54.4 µM

Find the recorded TGI belonging to Cc1ccccc1C(=O)C1CCCCC1O (stereo not given) and report it. > 100 µM

# query: TGI of entry `CN1CCN(P2(=S)Oc3ccc4ccccc4c3-c3c(ccc4ccccc34)O2)CC1` > 67.5 µM

Item under review: `COc1ccc(Nc2ccc([N+](=O)[O-])cc2[N+](=O)[O-])cc1CN(CCCl)CCCl` . Reported TGI? 4.33 µM

Request the reported TGI associated with N#CCCC1(CCC#N)CCCCCCCCC(CCC#N)(CCC#N)C(O)C1O (stereo not given) > 100 µM

For the compound shown here, CCC1C(c2ccccc2O)c2cc3c(cc2OC1N1CCOCC1)OCO3 (stereo not given) , give the reported TGI. 34.1 µM

I would be grateful if you could share the reported TGI for `CCCc1[nH]c2ccccc2c1-c1c(CCC)[nH]c2ccccc12` . 38.5 µM

What value of TGI has been recorded for this entry: `CN=C(Nc1cccc(C(F)(F)F)c1)SCc1ccc(N=C=S)cc1` 30.4 µM

Query (compound): C[C@@H]1O[C@@H](O[C@@H]2[C@@H](O)[C@H](OCCc3ccc(O)c(O)c3)O[C@H](CO)[C@H]2OC(=O)/C=C/c2ccc(O)c(O)c2)[C@H](O)[C@H](OC2OC[C@](O)(CO)[C@H]2O)[C@H]1O (stereo not given in full) ; field requested: TGI 42.5 µM

For the compound `CCCCCCCCCCCC[N+](CCCCCCCCCCCC)=C1SCCS1` , what TGI is on record? 26.1 µM

Give its TGI value. Item: `C/C(=N\O)c1cccc(Nc2cc(-n3ccnc3)c3ccccc3n2)c1` 32.9 µM

Which TGI reading was recorded for the compound `N#C/C(C(=S)NCc1ccccc1)=C(/N)N1CCCC1` ? > 100 µM

What value of TGI has been reported for the following compound? O=C1c2c(Br)sc(Br)c2[C@@H](NC(=O)C(F)(F)F)C1Br (stereo not given in full) 8.82 µM

Which value of TGI has been reported for `CC(C)C[C@H](NC(=O)CCn1ccc2ccccc2c1=O)B(O)O` in the records? 27 µM

Find the recorded TGI belonging to `COc1cc(Nc2nc3cc(C(F)(F)F)ccc3n3cccc23)cc(OC)c1OC` and report it. > 100 µM

Field request: TGI | item: `COc1cccc(Oc2ccccc2NC(=O)CNC(=O)c2cccc3ccccc23)c1` > 25 µM

Recorded TGI of COC(=O)C(Cc1c[nH]c2ccccc12)N=C1Nc2ccncc2S(=O)(=O)N1c1cccc(OC(C)C)c1 (stereo not given) , please. > 100 µM

Which TGI value is on record for `O=C(NNS(=O)(=O)c1ccc(Cl)cc1Cl)c1cccnc1Nc1ccc(Cl)cc1` ? 58.7 µM

Suppose we examine the compound `Fc1cccc(F)c1C(Nc1nncs1)Nc1nncs1` ; what TGI value has been reported? > 100 µM

Quick one: TGI of `COc1cc(C(=O)Nc2cc(O)c(CC=C(C)C)c(O)c2)cc2c1O[C@]1(C)CC[C@@H](O)C(C)(C)[C@H]1C2` ? 63.1 µM

For the compound `C=C(C)[C@@H]1CC[C@]2(C(=O)OC)CC[C@]3(C)[C@H](CC[C@@H]4[C@@]5(C)CC[C@H](O)C(C)(C)[C@@H]5CC[C@]43C)[C@@H]12` , what TGI is on record? 39.6 µM

Field request: TGI | item: `CC(=O)O[C@H]1CC[C@@]2(C)C(=CC[C@@H]3[C@@H]2CC[C@]2(C)c4nc(Cl)ccc4C[C@@H]32)C1` > 100 µM

Report TGI for `N#CCCNc1nonc1-c1nc2ccccc2n1CC(=O)c1ccc(NC(=O)[C@@H](N)CCCCN)cc1` please. > 100 µM

I have this compound here, `O=C(Cc1nc2ccccc2o1)C(=O)Nc1cccc(C(F)(F)F)c1` , and I need its recorded TGI. > 100 µM

Param item = `COc1ccc(NC(=O)C(=O)/C=C(\O)c2ccccc2)cc1` ; retrieve measured TGI. > 10 µM

I'd like to know its TGI. The compound in question is `CCc1c(C)nc2sc3c(N)ncnc3c2c1C` > 25 µM

For the compound shown here, `C=C1[C@@H](O)O[C@H]2[C@H]1C[C@H](OC(C)=O)[C@]13C(=O)O[C@H]4C[C@](C)(O)[C@H]([C@H]41)C31C=C(C)[C@]2(O)O1` , give the reported TGI. 34.6 µM

Using the record for `COc1ccc(/C=C(\C)[N+](=O)[O-])cc1OC` , report its TGI. 3.89 µM
